Origin of the recorded values: patent US9040532B2

# TESTED TARGET: Alpha 2B (Homo sapiens, UniProt P18089)
# Sequence (P18089 whole entry): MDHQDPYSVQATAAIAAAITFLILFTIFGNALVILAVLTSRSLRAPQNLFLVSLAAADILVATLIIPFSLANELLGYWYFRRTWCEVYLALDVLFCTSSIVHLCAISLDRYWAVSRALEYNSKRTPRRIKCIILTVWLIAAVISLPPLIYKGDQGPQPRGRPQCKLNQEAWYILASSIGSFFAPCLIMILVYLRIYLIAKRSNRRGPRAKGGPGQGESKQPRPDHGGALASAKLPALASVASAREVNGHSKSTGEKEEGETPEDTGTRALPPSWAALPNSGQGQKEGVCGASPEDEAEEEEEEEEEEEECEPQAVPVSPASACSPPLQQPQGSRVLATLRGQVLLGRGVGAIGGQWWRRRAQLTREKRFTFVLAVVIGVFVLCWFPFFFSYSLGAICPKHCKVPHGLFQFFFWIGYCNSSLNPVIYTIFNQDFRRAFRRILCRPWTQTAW
# EXPERIMENT SUMMARY: FLIPR assay, intracellular Ca2+ mobilization, alpha 2B
# Type: cell-based
# CONDITIONS: FLIPR, value in parentheses
QUANTITY: Alpha 2B relative efficacy compared to a standard full agonist

Take a look at these entries with their results.
SMILES ENTRY	RECORDED VALUE
Brc1c(NC2=NCCC2)ccc2scnc12	(.76)
Cc1c(NC2=NCCC2)ccc2[nH]ccc12	(0.18)
Cc1c(NC2=NCCC2)ccc2cccnc12	(0.2)
Cc1ccc2ccccc2c1NC1=NCCC1	(0.18)

Please report Alpha 2B relative efficacy compared to a standard full agonist for every entry that follows.
1. Brc1ccc(NC2=NCCC2)c2ccccc12
2. Cc1cccc2c1CC[C@@H]2NC1=NCCC1
3. c1cc2cc(NC3=NCCC3)ccc2[nH]1

Response:
["(0.15)", "(0.9)", "(0.15)"]
